# protocol_details: BET inhibitor-based combinations targeting novel dependencies in MECOM-rearranged (r) AML: AML-194 cell line (AID 2202237; note: nearly all actives have a fitted effect of over 40% in size)
# reported_conditions: AML-194 (MECOM-r AML) viability, CellTiter-Glo, 48 h; series mostly up to 46 µM
# Procedure: Ecotropic viral insertion site 1 (EVI1) is located on chromosome 3q26.2 as part of the MECOM (MDS and EVI1 complex) locus. […] A collection of 2480 mechanistically annotated dugs (MIPE v5.0) was used to screen four 3q26.2 rearranged AML cell lines and three non-3q26.2 rearranged AML cell lines. […] Cell viability was determined by luminescence based, Cell Titer Glo assay (Promega). […] Luminescence readings were taken using a Viewlux (PerkinElmer) with a 2 s exposure time per plate. […]
Inconclusive results are not listed. Active and inactive are the calls of the source. Calls come from the whole dose curve; as a rule, active = well fitted inhibition curve with a large enough effect; inconclusive = small, poorly fitted or top-dose-only effect; inactive = flat fitted curve, though single readings scatter.
Pick one and only one: active, inactive

COc1cc2c(NC3CCN(C(C)C)CC3)nc(C3CCCCC3)nc2cc1OCCCN1CCCC1	active
CC(=O)OCC(=O)[C@@]1(O)CC[C@H]2[C@@H]3CCC4=CC(=O)CC[C@]4(C)[C@H]3C(=O)C[C@@]21C	inactive
Cn1cncc1C(N)(c1ccc(Cl)cc1)c1ccc2c(c1)c(-c1cccc(Cl)c1)cc(=O)n2C (centres undefined)	active
CN(NC(=O)CC(=O)NN(C)C(=S)c1ccccc1)C(=S)c1ccccc1	active
O=C(CN1C(=O)C2(CCCC2)NC[C@H]1c1cc(F)cc(F)c1)Nc1ccc2c(c1)C[C@@]1(C2)C(=O)Nc2ncccc21	inactive
O=C(/C=C/N1C[C@H]2C[C@@H]1CN2c1ccccn1)c1ccccc1O	inactive
Cc1[nH]c2ccc(F)cc2c1-c1nc2c3cccnc3c3ncccc3c2[nH]1	active
Cc1cc(C(C)(C)C)cc(C)c1CC1=NCCN1	inactive

Tell me the assay call for "COc1ccc(-c2c(-c3ccc(O)cc3O)n[nH]c2C)cc1" please.
inactive

Then this molecule: CC(O)c1cc(C(=O)N[C@@H](C)Cn2ccc(-c3ccc(C#N)c(Cl)c3)n2)n[nH]1 (some centres undefined)
inactive

Then "O=c1c(O)c(-c2cc(O)c(O)c(O)c2)oc2cc(O)cc(O)c12" ?
inactive

What about "Cn1ncnc1[C@H]1c2n[nH]c(=O)c3cc(F)cc(c23)N[C@@H]1c1ccc(F)cc1" ?
active

Would you kindly repeat that for "CCN(CC)CCNC(=O)c1ccc2nc(-c3ccccc3)c(-c3ccc(CN4CCC(n5c(=O)[nH]c6ccccc65)CC4)cc3)nc2c1" ?
active

How about this molecule: COc1ccccc1N1CCN(CC(O)COc2cccc3ccccc23)CC1 (centres undefined)
inactive

And for "Nc1cccc(-c2cc3c(Oc4cccc(O)c4)ncnc3[nH]2)c1" ?
active

Further, for "CCCN1CCN(c2ccc(C(=O)NC3(C(=O)NCC#N)CCCCC3)cc2)CC1" ?
inactive

Further, for "Cc1nc2cnc3ccc(C#Cc4cccnc4)cc3c2n1-c1ccc(C(C)(C)C#N)cc1" ?
active

Request: C[C@]12CC[C@@H]3c4ccc(O)cc4C[C@@H](CCCCCCCCCS(=O)CCCC(F)(F)C(F)(F)F)[C@H]3[C@H]1CC[C@H]2O (some centres undefined)
inactive

Queued: "NC(=O)c1ccc(N(C(N)=O)c2c(F)cccc2F)nc1-c1ccc(F)cc1F"
inactive

Thanks! And "Cc1ccc(C(=O)Nc2ccc(CN3CCN(C)CC3)c(C(F)(F)F)c2)cc1C#Cc1cnc2cccnn12" ?
active

Okay, and "O=C(c1ccc(C(=O)N2CCC(N3CCCC3)CC2)c(Nc2ccccc2)c1)N1CCC(N2CCCC2)CC1" ?
inactive

Here is the next molecule: "Cc1ccc(S(=O)(=O)Nc2cc(Cl)ccc2C(=O)Nc2nc(-c3ccccc3)cs2)cc1"
active

And what about the molecule "Cc1c(-c2ccc(O)cc2)n(Cc2ccc(OCCN3CCCCCC3)cc2)c2ccc(O)cc12" ?
active

Now consider "CN[C@H]1CCc2cc(OC)c(OC)c(OC)c2-c2ccc(OC)c(=O)cc21" and answer again.
active
